Where do the numbers come from? From patent US9181230B2.

Target: mouse TAAR1 (Mus musculus (Mouse), UniProt Q923Y8)
Sequence (Q923Y8 whole entry): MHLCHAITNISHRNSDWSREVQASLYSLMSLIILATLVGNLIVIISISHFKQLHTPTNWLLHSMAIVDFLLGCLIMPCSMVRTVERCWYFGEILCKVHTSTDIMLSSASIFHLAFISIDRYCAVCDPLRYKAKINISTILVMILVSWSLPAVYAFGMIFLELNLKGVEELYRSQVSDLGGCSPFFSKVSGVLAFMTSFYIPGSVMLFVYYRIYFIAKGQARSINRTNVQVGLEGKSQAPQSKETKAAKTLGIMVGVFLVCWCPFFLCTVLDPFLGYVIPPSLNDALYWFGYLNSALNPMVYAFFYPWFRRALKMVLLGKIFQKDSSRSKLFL
Test: Radioligand binding assay on mouse TAAR1
Settings: mouse TAAR1, membranes of HEK-293 cells, first value of the cell pair mouse/rat
Where a name gives a salt, the structure may show the parent alone.
Measured log10 of Ki of individual entries
quantity.kind: log10 of Ki (log10 of the value in µM)

>>> test_value("Fc1ccc(-n2cc(-c3ccc([C@H]4CNCCO4)cc3)cn2)cc1 [Example 19, hydrochloride]")
-2.82
>>> test_value("Fc1ccc([C@@H]2COC(c3ccc([C@H]4CNCCO4)cc3)=N2)cc1")
-1.50
>>> test_value("N#Cc1ccc(-c2cc(-c3ccc([C@@H]4CNCCO4)cc3)n[nH]2)cc1 [Example 32, hydrochloride]")
-2.72
>>> test_value("Fc1ccc(-c2ncn(-c3ccc([C@H]4CNCCO4)cc3)n2)cc1 [Example 25, hydrochloride]")
-2.47
>>> test_value("Fc1ccc(-c2cc(-c3ccc([C@H]4CNCCO4)cc3)n[nH]2)c(F)c1 [Example 13, hydrochloride]")
-3.52
>>> test_value("Fc1ccc(-n2cc(-c3ccc([C@@H]4CNCCO4)cc3)nn2)cc1 [Example 35, hydrochloride]")
-2.77
>>> test_value("Fc1ccc(-c2cc(-c3ccc([C@H]4CNCCO4)cc3F)n[nH]2)cc1 [Example 40, hydrochloride]")
-2.92

###

Target: UniProt:Q923Y9
quantity.kind: Kd

>>> test_value("CCN(C[C@H]1COC(N)=N1)c1ccccc1 [reference compound]")
"~2.3 nM"

###

Target: rat TAAR1 (Rattus norvegicus (Rat))
Sequence (Q923Y9 whole entry): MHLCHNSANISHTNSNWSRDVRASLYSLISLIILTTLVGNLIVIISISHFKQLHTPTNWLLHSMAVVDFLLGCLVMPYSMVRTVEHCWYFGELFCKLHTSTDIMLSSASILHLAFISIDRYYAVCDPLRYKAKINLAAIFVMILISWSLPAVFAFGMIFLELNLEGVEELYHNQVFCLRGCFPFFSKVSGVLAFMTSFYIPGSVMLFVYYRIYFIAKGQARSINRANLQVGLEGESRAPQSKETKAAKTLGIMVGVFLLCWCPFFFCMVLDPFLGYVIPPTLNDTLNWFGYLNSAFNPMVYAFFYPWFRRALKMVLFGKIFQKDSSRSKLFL
Experiment: Radioligand binding assay on rat TAAR1
Settings: rat TAAR1, membranes of HEK-293 cells, second value of the cell pair mouse/rat
Where a name gives a salt, the structure may show the parent alone.
Measured Ki of individual entries
quantity.kind: Ki (µM)

>>> test_value("Fc1ccc(-c2cc(-c3ccc([C@@H]4CNCCO4)cc3F)n[nH]2)cc1 [Example 41, hydrochloride]")
0.0043
>>> test_value("Fc1ccc(-c2cc(-c3ccc(C4CNCCO4)cc3)n[nH]2)cc1 (stereo not shown) [Example 4, hydrochloride]")
0.0059
>>> test_value("c1cc([C@H]2CNCCO2)ccc1-c1cc(C2CCOCC2)[nH]n1 [Example 24, hydrochloride]")
0.0722
>>> test_value("N#Cc1ccc(-c2cc(-c3ccc(C4CNCCO4)cc3)n[nH]2)cc1 (stereo not shown) [Example 6, hydrochloride]")
0.0335

###

Biological target: mouse TAAR1 (Mus musculus (Mouse))
Test: Radioligand binding assay on mouse TAAR1
Settings: mouse TAAR1, membranes of HEK-293 cells, first value of the cell pair mouse/rat; hydrochloride
Structures can show the parent of a compound that is named as a salt.
quantity.kind: Ki (µM)

>>> test_value("FC(F)(F)c1cnc2[nH]c3ccc([C@@H]4CNCCO4)cc3c2c1 [Example 48, hydrochloride]")
0.0081
>>> test_value("FC(F)(F)c1cnc2[nH]c3ccc([C@@H]4CNCCO4)cc3c2c1 [Example 50, hydrochloride]")
0.0082

###

Target: rat TAAR1 (Rattus norvegicus (Rat))
Assay: Radioligand binding assay on rat TAAR1
Details: rat TAAR1, membranes of HEK-293 cells, second value of the cell pair mouse/rat
Counter-ions that a name gives are not always drawn.
quantity.kind: log10(Ki) (log10 of the value in µM)

>>> test_value("O=C(Nc1n[nH]c2cc(C3CNCCO3)ccc12)c1ccc(F)cc1 (stereo not shown) [Example 21, hydrochloride]")
-0.05
>>> test_value("Fc1ccc(-n2cc(-c3ccc([C@H]4CNCCO4)cc3)cn2)cc1 [Example 19, hydrochloride]")
-1.17
>>> test_value("Fc1ccc(-c2cc(-c3ccc([C@H]4CNCCO4)cc3F)n[nH]2)cc1 [Example 40, hydrochloride]")
-1.81
>>> test_value("N#Cc1ccc(-c2cc(-c3ccc([C@@H]4CNCCO4)cc3)n[nH]2)cc1 [Example 32, hydrochloride]")
-1.81
>>> test_value("Clc1ccc(-c2cc(-c3ccc([C@H]4CNCCO4)cc3)n[nH]2)cn1 [Example 37, hydrochloride]")
-0.52
>>> test_value("Fc1ccc(-c2cc(-c3ccc([C@@H]4CNCCO4)cc3)n[nH]2)cc1 [Example 31, hydrochloride]")
-2.44
>>> test_value("FC(F)(F)c1cc(-c2nc3ccc([C@@H]4CNCCO4)cc3o2)ccn1 [Example 54, hydrochloride]")
-0.35
>>> test_value("Clc1ccc(-c2cc(-c3ccc(C4CNCCO4)cc3)n[nH]2)cc1 (stereo not shown) [Example 3, hydrochloride]")
-2.47
>>> test_value("Clc1cccc(-c2cc(-c3ccc([C@H]4CNCCO4)cc3)n[nH]2)c1 [Example 9, hydrochloride]")
-2.68
>>> test_value("Fc1ccc(-c2nnc(-c3ccc([C@@H]4CNCCO4)cc3)o2)cc1 [Example 34, hydrochloride]")
-0.81
>>> test_value("Fc1ccc(-c2nc(-c3ccc([C@@H]4CNCCO4)cc3)n[nH]2)cc1 [Example 23, hydrochloride]")
-1.71
>>> test_value("Fc1ccc(-c2nnc(-c3ccc([C@H]4CNCCO4)cc3)o2)cc1 [Example 17, hydrochloride]")
-0.64
>>> test_value("N#Cc1ccc(-c2cc(-c3ccc([C@H]4CNCCO4)cc3)n[nH]2)cc1 [Example 28, hydrochloride]")
-1.77
>>> test_value("Clc1cnc2[nH]c3ccc([C@H]4CNCCO4)cc3c2c1 [Example 47, hydrochloride]")
-1.12
>>> test_value("N#Cc1cccc(-c2cc(-c3ccc(C4CNCCO4)cc3)n[nH]2)c1 (stereo not shown) [Example 12, hydrochloride]")
-1.21
>>> test_value("Cc1cc2nc(-c3ccc([C@H]4CNCCO4)cc3)[nH]c2cc1C [Example 16, hydrochloride]")
0.06
